- Test system: biotinyl-Phe-oxazolone
- Experimental details: self-aminoacylation, catalytic enhancement (BFO) (fold over background); higher = more active; k-Seq, kA / k0A0; sequences stand for … in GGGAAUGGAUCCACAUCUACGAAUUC…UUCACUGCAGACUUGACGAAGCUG
This sample holds only a part of the variants without activity.
Endpoint label: self-aminoacylation

Check out these entries, answers already filled in.
seq="AUUACCCUGGUCAUGUAGUGA [Fam2.1 aminoacylation ribozyme variant]" observed=4.73
seq="AAGUUAGCUAAUAGUCGAAAG [Fam3.1 aminoacylation ribozyme variant]" observed=3.83

The record that follows has no self-aminoacylation shown yet.
[Q] Tell me measured self-aminoacylation for AUUACCCUGGUCAUUGAGUGC [Fam2.1 aminoacylation ribozyme variant] please.
[A] 1.08

* * *

- Tested on: biotinyl-Leu-oxazolone
- Experimental details: self-aminoacylation, catalytic enhancement (BLO) (fold over background); higher = more active; k-Seq, kA / k0A0; sequences stand for … in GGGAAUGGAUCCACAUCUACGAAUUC…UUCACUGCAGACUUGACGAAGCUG
This sample holds only a part of the variants without activity.
Decision: self-aminoacylation compared against 2; not below it gives Criterion met, below it gives Criterion not met.

seq="AAGGUUGCUAAUAGUCGGAAG [Fam3.1 aminoacylation ribozyme variant]" label="Criterion not met"
seq="AUUACCCUCAUCAUCGAGUGA [Fam2.1 aminoacylation ribozyme variant]" label="Criterion met"
seq="AUUACGCUGGUCAUCGAGUCA [Fam2.1 aminoacylation ribozyme variant]" label="Criterion not met"
seq="AUUUCCCUGGUCAUCGUGUGA [Fam2.1 aminoacylation ribozyme variant]" label="Criterion met"
seq="AAGUUUGCUUAGAGUCGCAAG [Fam3.1 aminoacylation ribozyme variant]" label="Criterion not met"
seq="AAGUUUGCUACUAGUCGGAAG [Fam3.1 aminoacylation ribozyme variant]" label="Criterion not met"

[Q] Say whether CUACUUCAAACAUUUGGUCUG [Fam1A.1 aminoacylation ribozyme variant] shows self-aminoacylation of 2 or more.
[A] Criterion not met

[Q] # bool: self-aminoacylation of AUUACCGUGGUCAUCGACUGA [Fam2.1 aminoacylation ribozyme variant] >= 2
[A] Criterion not met

[Q] Does the sequence GUACUUCAAAGAAUCGGUCUG [Fam1A.1 aminoacylation ribozyme variant] have recorded self-aminoacylation that is 2 or more?
[A] Criterion not met

[Q] For this sequence, is measured self-aminoacylation 2 or higher? AAGUUUGCUAACCGUCGCAAG [Fam3.1 aminoacylation ribozyme variant]
[A] Criterion not met

[Q] Threshold query (self-aminoacylation >= 2) on ACACACUUCAACCAAUCGGUC [Fam1B.1 aminoacylation ribozyme variant]
[A] Criterion met

[Q] Could you verify whether the entry AGUACCCUGGUCAUCGAGUGG [Fam2.1 aminoacylation ribozyme variant] shows self-aminoacylation of no less than 2?
[A] Criterion met

[Q] Test whether the sequence AUUUACCUGGUCAUCGAGUGA [Fam2.1 aminoacylation ribozyme variant] records self-aminoacylation of 2 or higher.
[A] Criterion met

[Q] In plain terms: is recorded self-aminoacylation at least 2 for AUUACACUGGUCAUCGAGCGA [Fam2.1 aminoacylation ribozyme variant] ?
[A] Criterion met

[Q] Given AGUACCGUGGUCAUCGAGUGA [Fam2.1 aminoacylation ribozyme variant] , state whether its self-aminoacylation is at least 2.
[A] Criterion met

[Q] Hello, I need to know if AUUACCCUAUUCAUCGAGUGA [Fam2.1 aminoacylation ribozyme variant] has measured self-aminoacylation not below 2. Thanks!
[A] Criterion met

[Q] Form field: self-aminoacylation at least 2? Entry: AUUAUCCUGGACAUCGAGUGA [Fam2.1 aminoacylation ribozyme variant]
[A] Criterion met

[Q] Check the entry AUUCACCCAGGUCAUCGGGUG [Fam2.2 aminoacylation ribozyme variant] : does self-aminoacylation equal or exceed 2?
[A] Criterion met

[Q] Could you verify whether the entry ACUCCCCUAGGUCAUCGGGUG [Fam2.2 aminoacylation ribozyme variant] shows self-aminoacylation of no less than 2?
[A] Criterion met

[Q] Could you please find out whether AUCUACCUAGGUCAUCGGGUG [Fam2.2 aminoacylation ribozyme variant] has self-aminoacylation that meets 2 or exceeds it?
[A] Criterion met
